Where these numbers come from: PubChem BioAssay (NCI)

- Test system: LOX IMVI melanoma
- runDescription: NCI tumour cell line growth inhibition, 48 h
metricName: log10 TGI (log10 of the value in µM)
Please interpret these as log10 of TGI where TGI is in µM.

Would you please look over these solved cases?
>  <compound>
O=C(C[Si](CC(=O)c1cccc(C(F)(F)F)c1)CC(=O)c1cccc(C(F)(F)F)c1)c1cccc(C(F)(F)F)c1

>  <testTarget>
LOX IMVI melanoma

>  <measuredValue>
1.06

$$$$
>  <compound>
Nc1cc2c(nc3c4ccccc4c(N)cc3[n+]2-c2cccc3ccccc23)c2ccccc12 (tested in a mixture with another compound)

>  <testTarget>
LOX IMVI melanoma

>  <measuredValue>
0.86

$$$$
>  <compound>
CCCc1cc(=O)oc2c3c(c4c(c12)OC(C)(C)CC4)O[C@H](C)[C@@H](C)[C@H]3O

>  <testTarget>
LOX IMVI melanoma

>  <measuredValue>
1.50

$$$$
>  <compound>
CC(C)=CC1CCc2ccccc2N1S(=O)(=O)c1ccc(C)cc1 (centres undefined)

>  <testTarget>
LOX IMVI melanoma

>  <measuredValue>
1.10

$$$$
>  <compound>
NC(=O)c1cccc(N2Cc3ccccc3OC3=C2C(=O)c2c(O)ccc(O)c2C3=O)c1

>  <testTarget>
LOX IMVI melanoma

>  <measuredValue>
-0.05

$$$$
>  <compound>
C[C@@H](O)[C@H]1C(=O)N2C(C(=O)O)=C(SCCN=CN)C[C@H]12

>  <testTarget>
LOX IMVI melanoma

>  <measuredValue>
0.60

$$$$
>  <compound>
CC(=O)N=C1C=C(NC(C)=O)C(=O)c2ccccc21

>  <testTarget>
LOX IMVI melanoma

>  <measuredValue>
0.50

$$$$
>  <compound>
CC1(C)C(OC(=O)c2ccccc2)C[C@]23CCC[C@](C)(C[C@@H](O)C12)C3 (some centres undefined)

>  <testTarget>
LOX IMVI melanoma

>  <measuredValue>
1.59

$$$$

Field: next compound
Assay LOX IMVI melanoma, sample CC(C)NCC(O)c1cc(OCc2ccccc2)c(OCc2ccccc2)cc1NC(=O)CCC(=O)O (centres undefined) , log10 TGI read: 0.47

###

- System: RPMI-8226 leukemia
- runDescription: NCI tumour cell line growth inhibition, 48 h
Could you please report measured TGI for the items listed next?

Would you please look over these solved cases?
>  <molecule>
O=C1OCC2=C1C(c1cccc(Cl)c1)c1cc3c(cc1N2CCO)OCO3 (stereo not drawn)

>  <testTarget>
RPMI-8226 leukemia

>  <metricName>
TGI

>  <measuredValue>
35.8 µM

$$$$
>  <molecule>
COC1CC(OC2C(C)OC(OC3C(C)OC(OC4C(C)OC(O[C@H]5CC[C@@]6(C)C(=CC[C@]7(O)[C@@H]6C[C@@H](OC(=O)/C=C/c6ccccc6)[C@@]6(C)[C@]7(O)CC[C@@]6(O)C(C)=O)C5)CC4OC)CC3OC)CC2OC)OC(C)C1O (stereo partly drawn)

>  <testTarget>
RPMI-8226 leukemia

>  <metricName>
TGI

>  <measuredValue>
> 12.5 µM

$$$$
>  <molecule>
CC(=O)OC/C=C(\C)CCC(Br)C(C)(C)Br (stereo not drawn)

>  <testTarget>
RPMI-8226 leukemia

>  <metricName>
TGI

>  <measuredValue>
> 10 µM

$$$$
>  <molecule>
COc1ccc(/C=C/C(=O)c2sc(NC(=S)NC(=O)c3ccccc3F)nc2C)cc1OC

>  <testTarget>
RPMI-8226 leukemia

>  <metricName>
TGI

>  <measuredValue>
> 100 µM

$$$$
>  <molecule>
NC(CSS(=O)(=O)c1ccccc1)C(=O)O (stereo not drawn)

>  <testTarget>
RPMI-8226 leukemia

>  <metricName>
TGI

>  <measuredValue>
> 10 µM

$$$$
>  <molecule>
CC(=O)N=C1C=C(NC(C)=O)C(=O)c2ccccc21

>  <testTarget>
RPMI-8226 leukemia

>  <metricName>
TGI

>  <measuredValue>
4.13 µM

$$$$

Batch lookup, TGI per entry.
1. C[C@@H]1CCC[C@]2(C)O[C@H]2CC[C@@](C)(O)[C@@H]2CC3=C(CO)C(=O)O[C@H]3[C@H]1O2
2. COc1c2c(cc3nc4ccccc4nc13)CC[C@H](NC(C)=O)c1cc(=O)c(SC)ccc1-2

["> 50 µM", "> 100 µM"]

###

Could you please report measured log10 of TGI for the items listed next?
- System: LOX IMVI melanoma
- runDescription: NCI tumour cell line growth inhibition, 48 h
Please interpret these as log10 of TGI where TGI is in µM.

Would you please look over these solved cases?
>  <molecule>
FC(F)(F)c1cccc(Nc2nc3ccccc3nc2Nc2cccc(C(F)(F)F)c2)c1

>  <log10 of TGI>
0.49

$$$$
>  <molecule>
C=C(C)C(=O)OC1CC2(C)OC(=CC2=O)C(C)CC2OC(=O)C(=C)C12 (stereo unspecified)

>  <log10 of TGI>
1.25

$$$$
>  <molecule>
O=C(/C=C1\C[C@H]2C=Nc3ccccc3C(=O)N2C1)NCCCNC(=O)/C=C1\C[C@H]2C=Nc3ccccc3C(=O)N2C1

>  <log10 of TGI>
1.35

$$$$
>  <molecule>
Clc1ccc(/C=C2\CCCC3C2=Nc2ccccc2NC3c2ccc(Cl)cc2)cc1 (stereo unspecified)

>  <log10 of TGI>
0.50

$$$$
>  <molecule>
COc1cc(-c2cc(=O)c3c(OC)c(OC)c(OC)c(OC)c3o2)cc(OC)c1OC

>  <log10 of TGI>
1.92

$$$$

Batch lookup, log10 of TGI per entry.
1. CN([O-])c1nc(N(C)[O-])nc(N2CCOCC2)n1.CN([O-])c1nc(N(C)[OH2+])nc(N2CCOCC2)n1.[Fe+3]
2. CC(=O)OC[C@]1(C)C=C2C(=O)[C@](C)(O)C3(CC3)C(C)=C2[C@H]1OC(=O)N(C)CCN(C)C(=O)OC(C)(C)C

1. 1.56
2. 0.86

Batch lookup, log10 of TGI per entry.
1. CCCCCCCCC1=CCC(CN(C)C)C1=O (stereo unspecified)
2. CCCCc1ccc(Nc2nc(=S)c3ncn(COCCO)c3[nH]2)cc1

1. 1.53
2. 1.88

###

- Tested on: NCI-H23 lung
- runDescription: NCI tumour cell line growth inhibition, 48 h
Could you please report measured TGI for the items listed next?

Would you please look over these solved cases?
>  <compound>
CCOC(=O)c1cc(NC(=O)N(CCC#N)CCN(C(=O)N[C@@H](Cc2ccccc2)C(=O)N[C@@H](CC(C)C)C(=O)NC)c2ccccc2)ccc1OC

>  <measuredValue>
> 100 µM

$$$$
>  <compound>
CCOC(=O)N/N=C(\Cc1ccccc1)OCC

>  <measuredValue>
> 100 µM

$$$$
>  <compound>
Cc1ccc(C2=C(c3ccc(C)cc3)C3(c4ccc(C)cc4)[C@@H](C#N)[C@H](C#N)C2(c2ccc(C)cc2)S3=O)cc1 (stereo not given in full)

>  <measuredValue>
> 100 µM

$$$$
>  <compound>
COc1ccc2nc3cc(Cl)ccc3c(NCCCCCN3CCCCC3)c2c1

>  <measuredValue>
2.85 µM

$$$$

Field: next compound
Query COc1ccc(NC(=O)C2C(=O)N(c3ccc(OC)cc3)C(=O)/C2=N\N)cc1 (stereo not given) yields TGI of > 100 µM

###

- System: UACC-257 melanoma
- runDescription: NCI tumour cell line growth inhibition, 48 h
metricName: TGI

>  <compound>
CCCCCCC1NN(C(C)=O)C(CCCCCC)NN1C(C)=O (stereo not drawn)

>  <TGI>
> 100 µM

$$$$
>  <compound>
C[C@@H](O)[C@H]1C(=O)N2C(C(=O)O)=C(SCCN=CN)C[C@H]12

>  <TGI>
3.78 µM

$$$$

Batch lookup, TGI per entry.
1. CCOC(=O)c1cc2c(c3ccsc13)C1(C)CCC3c4ccc(OC)cc4CCC3C1C2 (stereo not drawn)
2. CCOP(=O)(OCC)/C(C#N)=C/c1cnc(C)[nH]1
3. CCOC(=O)c1cc(NC(=O)N(CCC#N)CCN(C(=O)N[C@@H](Cc2ccccc2)C(=O)N[C@@H](CC(C)C)C(=O)NC)c2ccccc2)ccc1OC
4. CC(=O)[CH-]C(C)=O.CC(=O)[CH-]C(C)=O.[CH2-]CCCCCCC.[CH2-]CCCCCCC.[Sn+4]
5. CC(=NC1CCCCC1)c1ccccc1O
6. COc1c2c(cc3nc4ccccc4nc13)CC[C@H](NC(C)=O)c1cc(=O)c(SC)ccc1-2

1. > 100 µM
2. > 100 µM
3. 55 µM
4. 34.9 µM
5. > 100 µM
6. 30.5 µM

Batch lookup, TGI per entry.
1. O=C(O)C(Cc1c[nH]c2ccccc12)C(=O)NO (stereo not drawn)
2. c1ccc([P+](CCN2Cc3ccccc3C2)(c2ccccc2)c2ccccc2)cc1
3. O=C(O)C1CCCN1C(=O)c1cc(Cl)ccn1 (stereo not drawn)
4. CN1CCN(c2ccc3nc(-c4c5cccccc-5[nH]c4=O)[nH]c3c2)CC1
5. N#CC1(C#N)C2=C(CCCC2)NC(c2ccc(Br)cc2)C1(C#N)C#N (stereo not drawn)
6. Nc1nc2c(ncn2CC2CCC(CO)C2)c(=O)[nH]1 (stereo not drawn)
7. O=C(/C(=C\c1ccccc1)CN1CCOCC1)c1ccc(Br)cc1
8. COc1cccc(NC(=O)CC(=O)N2NC(c3ccccc3)C(N=Nc3cccc(C(=O)O)c3)C2=O)c1 (stereo not drawn)

> 100 µM
12.4 µM
> 100 µM
35.3 µM
11.5 µM
> 100 µM
8.93 µM
> 100 µM
